System: DU-145 prostate
TEST DESCRIPTION: NCI tumour cell line growth inhibition, 48 h; in the data active means GI50 below about 0.43 µM; inactive means the rest
Can you answer with just one of these options? class 1 for active, class 0 for inactive

Problem: Recorded test call requested for CN1CCC(COc2cnc(-c3cccc(Cn4nc(-c5cccc(C#N)c5)ccc4=O)c3)nc2)CC1
Solution: class 0

Problem: Try this compound next: CCOC(=O)[C@@H](C)C[C@H](Cc1ccccc1)NC(=O)c1nc([C@@H](C[C@H](C(C)C)N(C)C(=O)[C@@H](NC(=O)[C@H]2CCCCN2C)C(C)C)OC(C)=O)sc1CCOCc1ccccc1
Solution: class 1

Problem: Try this compound next: COc1cc2nccc(Oc3ccc(NC(=O)NC4CC4)c(Cl)c3)c2cc1C(N)=O
Solution: class 0

Problem: Try this compound next: CCOC(=O)c1ccc(Nc2sc(C(=O)c3ccc(Br)cc3)c(N)c2C#N)cc1
Solution: class 0

Problem: Try this compound next: CSC1=Nc2c(c(C)c(-c3ccccc3)n2CCCN2CCCCC2)C2=NC(=O)C[C@H](C)N12
Solution: class 0

Problem: Try this compound next: COC(=O)[C@@H](C)C[C@H](Cc1cn(C)c2ccccc12)NC(=O)c1csc([C@@H](C[C@H](C(C)C)N(C)C(=O)[C@@H](NC(=O)[C@H]2CCCCN2C)C(C)C)OC(C)=O)n1
Solution: class 1

Problem: Try this compound next: Nc1c(C(=O)c2ccc(-c3cccnc3)cc2)cnn1-c1ccc(F)cc1
Solution: class 0

* * *

Tested on: NCI-H460 lung
Can you answer with just one of these options? active, inactive

Problem: Recorded test call requested for Cc1cccc(-c2[nH]ncc2-c2ccc3ncccc3n2)n1
Solution: inactive

Problem: Try this compound next: C=CCC(N[C@@H](CO)c1ccccc1)c1cn(Cc2ccccc2Cl)c(=O)n(Cc2ccccc2Cl)c1=O (some centres undefined)
Solution: inactive

Problem: Try this compound next: CO/C=C/C(=O)c1cc2cnc3c(=N)cc(NC(=O)C(C)C)c([nH]1)c23
Solution: active

Problem: Try this compound next: CC1(C)N=C(N)N=C(N)N1c1ccc(CCCCc2ccccc2)c(Cl)c1
Solution: active

Problem: Try this compound next: Nc1c(C(=O)c2ccc(-c3cccnc3)cc2)cnn1-c1ccc(F)cc1
Solution: inactive

Problem: Try this compound next: Cc1cc(Cl)cc2c(N=Nc3ccc(S(N)(=O)=O)cc3)c(O)[nH]c12
Solution: inactive

Problem: Try this compound next: CSc1ccc(-c2ccccc(=O)c2O)cc1
Solution: active

Problem: Try this compound next: C[C@]12CC[C@@H]3c4cc(OC(F)F)c(O)cc4CC[C@H]3[C@@H]1CC[C@@H]2OS(N)(=O)=O
Solution: active

Problem: Try this compound next: NC1=CC(=O)c2cccnc2C1=O
Solution: inactive

Problem: Try this compound next: CCC(CC)c1nc(Nc2ccc(C(=O)OC)cc2)c2ccccc2n1
Solution: inactive

Problem: Try this compound next: CC[C@H](NC(=O)[C@H]1CCCCN1C)C(=O)N(C)[C@H](C[C@@H](OC(C)=O)c1nc(C(=O)N[C@@H](Cc2ccccc2)C[C@H](C)C(=O)O)cs1)C(C)C
Solution: active

Problem: Try this compound next: O=S(=O)([O-])c1ccc(N=Cc2ccccc2[O-])cc1.O=S(=O)([O-])c1ccc(N=Cc2ccccc2[O-])cc1.[O]=[U+2]=[O]
Solution: inactive

Problem: Try this compound next: CSC1=Nc2c(c(C)c(-c3ccccc3)n2CCCN2CCCCC2)C2=NC(=O)C[C@H](C)N12
Solution: inactive

Problem: Try this compound next: CC[C@@H]1[C@@H](C)O[C@@](O)([C@@H](C)[C@H](O)[C@H](C)[C@H]2OC(=O)/C=C/C=C/[C@H](C)[C@@H]([C@@H](C)[C@@H](O)[C@H](C)[C@@]3(O)C[C@@H](O[C@H]4C[C@@H](O)[C@H](O)C(C)O4)[C@H](CC)[C@@H](C)O3)OC(=O)/C=C/C=C/[C@@H]2C)C[C@H]1O[C@@H]1C[C@@H](O)[C@H](O)C(C)O1 (some centres undefined)
Solution: active

Problem: Try this compound next: Cn1cc(C2=C(c3ccccc3[N+](=O)[O-])C(=O)NC2=O)c2ccccc21
Solution: inactive

Problem: Try this compound next: CC(C)(C)N1CCC1CN (centres undefined)
Solution: inactive

Problem: Try this compound next: Cc1ccc(Cl)cc1Nc1nc(C(F)(F)F)ccc1C(=O)N/N=C/c1cccnc1
Solution: inactive

Problem: Try this compound next: COC1=CC(c2ccc[nH]2)=N/C1=C\c1[nH]c(C)c(CC(=O)OCc2ccccc2)c1CCC(=O)OCc1ccccc1
Solution: active

Problem: Try this compound next: COc1cc2nccc(Oc3ccc(NC(=O)NC4CC4)c(Cl)c3)c2cc1C(N)=O
Solution: inactive

* * *

Could you please report measured TGI for the items listed next?
System: M14 melanoma
TEST DESCRIPTION: NCI tumour cell line growth inhibition, 48 h

Problem: Please report the recorded TGI for O=C(c1ccccc1)c1ccc(N2C(=O)/C(=C/Cc3ccco3)N=C2c2ccccc2)c(N2C(=O)/C(=C/Cc3ccco3)N=C2c2ccccc2)c1 .
Solution: > 100 µM

Problem: Try this compound next: c1ccc2c(CN3CCN(Cc4c[nH]c5ccccc45)CC3)c[nH]c2c1
Solution: 29.1 µM

Problem: Try this compound next: c1ccc2c(c1)NCCC(=NC1CCCCC1)N2
Solution: > 100 µM

Problem: Try this compound next: C1=NCCN2CCN(CCN=Cc3ccccc3OCc3cccc(n3)COc3ccccc31)CC2
Solution: > 50 µM

Problem: Try this compound next: Nc1cc(F)ccc1CC(=O)O
Solution: > 100 µM

Problem: Try this compound next: CC(=O)OC1CC2CCN3C(=O)c4cc5c(cc4[C@H](C1OC(C)=O)C23)OCO5 (stereo not given in full)
Solution: > 100 µM

Problem: Try this compound next: Cc1cc(O)c2c(c1O)C(=O)c1cccc(O)c1C2=O
Solution: > 100 µM

Problem: Try this compound next: CC(=O)Nc1ccc(/C=c2\sc3nnc(CCC(=O)Nc4ccccc4Cl)n3c2=O)cc1
Solution: 35.8 µM

Problem: Try this compound next: COc1cc([C@@H]2c3cc4c(c(O)c3C[C@H]3COC(=O)[C@@H]32)OCO4)cc(OC)c1OC
Solution: > 122 µM

Problem: Try this compound next: CC1=NN(C(=O)c2ccccc2O)C(=O)/C1=C/c1cccc(O)c1
Solution: 37 µM

* * *

Test system: CAKI-1 renal
TEST DESCRIPTION: NCI tumour cell line growth inhibition, 48 h
Could you please report measured TGI for the items listed next?

Problem: Please report the recorded TGI for COc1ccc(C(=O)Nc2ncc(Cc3cccc(Cl)c3)s2)cc1OC .
Solution: > 100 µM

Problem: Try this compound next: CCCCCCCCOCC(O)COC(C)C (stereo unspecified)
Solution: > 100 µM

Problem: Try this compound next: O=P1(Oc2ccccc2)N=P(c2ccccc2)(c2ccccc2)C=C(c2ccc(Cl)cc2)N1 (stereo unspecified)
Solution: 23 µM

Problem: Try this compound next: COc1cccc2ccc(C(=O)c3ccccc3)nc12
Solution: > 100 µM

Problem: Try this compound next: CCc1c(CN)c(CC)c(CNC2=NCCN2)c(CC)c1CNC1=NCCN1
Solution: > 100 µM

Problem: Try this compound next: CCOc1ccc2nc3nc(=O)[nH]c(C)c3c(NCCCN(CC)CC)c2c1
Solution: > 100 µM

Problem: Try this compound next: CC(C)(C)N1CCC1CN (stereo unspecified)
Solution: > 100 µM

Problem: Try this compound next: COC(=O)/C(=N\NC(N)=O)C(C(=O)C(=O)Nc1ccccc1OC)c1nc2ccc([N+](=O)[O-])cc2[nH]c1=O (stereo unspecified)
Solution: > 100 µM

Problem: Try this compound next: C=CCC(N[C@@H](CO)c1ccccc1)c1cn(Cc2ccccc2Cl)c(=O)n(Cc2ccccc2Cl)c1=O (stereo partly specified)
Solution: > 100 µM

Problem: Try this compound next: Clc1ccc(Nc2nnc(CCCCCCCCc3nnc(Nc4ccc(Cl)cc4)o3)o2)cc1
Solution: > 100 µM

Problem: Try this compound next: C=C1CC2CCCC12C=O (stereo unspecified)
Solution: > 10 µM

* * *

Could you please report measured TGI for the items listed next?
Tested on: M14 melanoma
TEST DESCRIPTION: NCI tumour cell line growth inhibition, 48 h

Problem: Please report the recorded TGI for O=[N+]([O-])c1ccc(C2CC(c3ccccc3Cl)=Nc3ccccc3S2)cc1 (stereo not given) .
Solution: 29.4 µM

Problem: Try this compound next: O=C(O)/C=C/C(=O)N1Cc2cc3ccccc3nc2C1
Solution: > 100 µM

Problem: Try this compound next: C[C@]12CCc3nc(Nc4cccc(O)c4)sc3C1=CC[C@@H]1[C@@H]2CC[C@]2(C)/C(=N\NC(N)=S)CC[C@@H]12
Solution: 5 µM

Problem: Try this compound next: CC(C)(C)N1CCC1CN (stereo not given)
Solution: > 100 µM

Problem: Try this compound next: COc1c(C)cc(O)cc1C=O
Solution: > 100 µM
